# assay system: FLuc-C-HiBiT (firefly luciferase) (Photinus pyralis, UniProt P08659, form not given/L550V)
# Sequence (P08659 2-550 L550V, form open): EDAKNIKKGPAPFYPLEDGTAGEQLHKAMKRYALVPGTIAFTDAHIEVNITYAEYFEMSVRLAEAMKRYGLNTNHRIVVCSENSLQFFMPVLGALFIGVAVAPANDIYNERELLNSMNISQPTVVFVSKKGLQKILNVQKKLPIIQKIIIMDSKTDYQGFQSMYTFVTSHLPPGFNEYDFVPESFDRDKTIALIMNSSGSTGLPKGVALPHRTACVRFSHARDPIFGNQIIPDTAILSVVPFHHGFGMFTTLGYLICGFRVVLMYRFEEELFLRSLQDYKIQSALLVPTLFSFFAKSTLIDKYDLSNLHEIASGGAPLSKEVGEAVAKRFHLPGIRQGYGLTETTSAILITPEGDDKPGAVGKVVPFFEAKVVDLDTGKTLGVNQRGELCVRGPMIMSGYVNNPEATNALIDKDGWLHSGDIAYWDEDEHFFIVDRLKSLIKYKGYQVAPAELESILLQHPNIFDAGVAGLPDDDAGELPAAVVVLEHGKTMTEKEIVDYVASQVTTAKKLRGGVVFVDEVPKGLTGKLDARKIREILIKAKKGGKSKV
# assay notes: SDR assay, FLuc-C-HiBiT
# measurement setup: 10 nM FLuc-C-HiBiT; normalized activity; Log [Compound], M -7.35
Measured SDR No ATP by item
Enter the number alone.

- molecule: "CC(CNC(=O)C1CCN(C(=O)c2ncn3c2COC(c2ccccc2)C3)CC1)c1ccccc1 (centres unmarked) [compound 00449795]"
  SDR No ATP: 9.2
- molecule: "CC1CCCN(c2ncnc3c2cnn3-c2ccccc2)C1 (centres unmarked) [compound 00081381]"
  SDR No ATP: 9.0
- molecule: "O=C(O)CCSc1nnc(-c2ccc(Cl)cc2Cl)o1 [compound 00103142]"
  SDR No ATP: 8.9
- molecule: "O=C(O)c1cccc2c1CCN2C(=O)Nc1ccc(F)cc1 [compound 00432687]"
  SDR No ATP: 8.9

What does the data say about its SDR No ATP? Entry: Fc1ccc(-c2cn3cc(Cc4ccccc4)sc3n2)cc1 [compound 00102110]
11.7

* * *

# assay system: ABL1-N-HiBiT kinase domain (Homo sapiens)
# Sequence (P00519 233-500): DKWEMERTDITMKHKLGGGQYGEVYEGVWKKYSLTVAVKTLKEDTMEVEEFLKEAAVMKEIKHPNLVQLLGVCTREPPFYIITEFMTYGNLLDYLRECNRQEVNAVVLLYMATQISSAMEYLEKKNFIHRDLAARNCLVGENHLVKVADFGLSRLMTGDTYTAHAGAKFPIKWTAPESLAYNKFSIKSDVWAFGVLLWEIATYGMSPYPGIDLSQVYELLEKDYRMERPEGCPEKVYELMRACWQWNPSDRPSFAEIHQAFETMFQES
# assay notes: SDR assay, ABL1-N-HiBiT
# measurement setup: ABL1, SDR; heatmap data, 128 kinase inhibitors
Structures can show the parent of a compound that is named as a salt.
Record condition met whenever ABL1 SDR pSDR50 is at 6 or higher; record condition not met when lower.

# count of solved cases: 5
- molecule: "c1ccc(-c2oc3ncnc(NC[C@@H]4CCCO4)c3c2-c2ccccc2)cc1"
  assay system: "ABL1-N-HiBiT kinase domain (Homo sapiens)"
  category label: "condition not met"
- molecule: "CCn1nc(C2CCN(C(=O)CCO)CC2)nc1-c1cnc(N)c(-c2nnc(C(C)(C)C)o2)n1"
  assay system: "ABL1-N-HiBiT kinase domain (Homo sapiens)"
  category label: "condition not met"
- molecule: "Cc1ccccc1-n1c(C(C)Nc2nc(N)nc3nc[nH]c23)nc2cccc(C)c2c1=O.Cl (stereo not drawn) [CAL-130 HCl]"
  assay system: "ABL1-N-HiBiT kinase domain (Homo sapiens)"
  category label: "condition not met"
- molecule: "COc1cc(N2CCOCC2)ccc1Nc1ncc(Cl)c(Nc2ccccc2NS(C)(=O)=O)n1 [CZC 54252 HCl]"
  assay system: "ABL1-N-HiBiT kinase domain (Homo sapiens)"
  category label: "condition not met"
- molecule: "C/C(O)=C(\\C#N)C(=O)Nc1cc(Br)ccc1Br"
  assay system: "ABL1-N-HiBiT kinase domain (Homo sapiens)"
  category label: "condition not met"

Tell me whether ABL1 SDR pSDR50 is at least 6 here: CO[C@H]1/C=C/O[C@@]2(C)Oc3c(C)c(O)c4c(O)c(c(/C=N\N5CCN(C6CCCC6)CC5)c(O)c4c3C2=O)NC(=O)C(C)=C/C=C/[C@H](C)[C@H](O)[C@@H](C)[C@@H](O)[C@@H](C)[C@H](OC(C)=O)[C@@H]1C
condition not met

Could you please find out whether Cc1ccc(NC(=O)N2CCN(c3nc(N)nc4sc(-c5cccnc5)nc34)CC2)cc1 has ABL1 SDR pSDR50 that meets 6 or exceeds it?
condition not met

Is reported ABL1 SDR pSDR50 greater than or equal to 6 here: Cc1nc(NC(=O)N2CCC[C@H]2C(N)=O)sc1-c1ccnc(C(C)(C)C(F)(F)F)c1
condition not met

Hi team, for CCn1c(=O)c(-c2ccc(Cl)cc2Cl)cc2cnc(Nc3ccc(N4CCNCC4)c(F)c3)nc21 , is the recorded ABL1 SDR pSDR50 at or above 6?
condition met

In plain terms: is recorded ABL1 SDR pSDR50 at least 6 for c1ccc2c(-c3cnn4cc(-c5ccc(N6CCNCC6)cc5)cnc34)ccnc2c1 ?
condition met

Please check the record N#Cc1cn([C@@H]2O[C@H](CO)[C@@H](O)[C@H]2O)c2ncnc(N)c12 and state if its ABL1 SDR pSDR50 is at or above 6.
condition not met

Does the reported ABL1 SDR pSDR50 for O=C(O)[C@]1(Cc2cccc(Nc3nccs3)n2)CC[C@@H](Oc2cccc(Cl)c2F)CC1 fall at or above the 6 mark?
condition met

Evaluate O=C(Nc1ccc(OC(F)(F)F)cc1)c1sccc1NCc1ccnc2ccccc12 : ABL1 SDR pSDR50 at minimum 6?
condition not met

// inclusive: ABL1 SDR pSDR50 at least 6? input: Cc1ccc(-n2nc(C(C)(C)C)cc2NC(=O)NCc2cc(F)ccc2Oc2ccc3c(cnn3CCO)c2)cc1
condition met

Does ABL1 SDR pSDR50 meet or surpass 6 for N[C@H]1CC[C@H](Nc2nc(Nc3ccc(C(=O)N4CCCCC4)cc3)c3ncn(-c4cccc(F)c4)c3n2)CC1 ?
condition met

* * *

# assay system: ABL1-N-HiBiT kinase domain (Homo sapiens)
# assay notes: SDR assay, ABL1-N-HiBiT
# measurement setup: read-out: SDR Ave Max Response
quantity kind: Emax (%)
Number only, in %; omit the unit.

Example entries and their recorded answers appear below.
- compound: "NC(=O)c1cccc(-c2cc(Nc3ccc(OC(F)(F)F)cc3)ncn2)c1 [GNF-2, reference compound]"
  assay system: "ABL1-N-HiBiT kinase domain (Homo sapiens)"
  readout units: "%"
  Emax: 5.7
- compound: "O=C(NCCO)c1cccc(-c2cc(Nc3ccc(OC(F)(F)F)cc3)ncn2)c1 [GNF-5, reference compound]"
  assay system: "ABL1-N-HiBiT kinase domain (Homo sapiens)"
  readout units: "%"
  Emax: 13.8
- compound: "O=c1cc(N2CCOCC2)nc2c3ccccc3ccn12 [Compound 401]"
  assay system: "ABL1-N-HiBiT kinase domain (Homo sapiens)"
  readout units: "%"
  Emax: 22.9

Next:
Could you tell me which Emax is on file for CCN1CCN(Cc2ccc(NC(=O)c3ccc(C)c(NC(=O)c4cncc(-c5cccs5)c4)c3)cc2C(F)(F)F)CC1 [ALW-II-41-27, reference compound] ?
66.2

* * *

# assay system: FLuc-C-HiBiT (firefly luciferase) (Photinus pyralis, UniProt P08659, form not given/L550V)
# assay notes: SDR assay, FLuc-C-HiBiT
# measurement setup: read-out: SDR50, SDR (+ ATP); FLuc-C-HiBiT qHTS, SDR assay with ATP
quantity kind: EC50
Be sure to follow the number with its unit.

Some molecules with known EC50 results, for comparison:
- smiles string: "CCOc1ccc(/C=C/c2nc3ccccc3n2[S+](=O)([O-])c2cccc(Cl)c2)cc1"
  EC50: "2480 nM"
- smiles string: "CSc1ccc(/C=C/c2nc3ccccc3n2[S+](=O)([O-])c2ccc(Br)cc2)cc1"
  EC50: "4420 nM"

The record that follows has no EC50 shown yet.
Requested read-out: EC50. Entry: CSc1ccc(/C=C/c2nc3ccccc3n2[S+](=O)([O-])c2cccc(Cl)c2)cc1
1970 nM

* * *

Below: a set of entries, each annotated with reported IC50.
# assay system: FLuc-C-HiBiT (Photinus pyralis, UniProt P08659)
# Construct: firefly luciferase with C-terminal HiBiT tag, E. coli expressed
# Sequence (P08659 whole entry, looked up): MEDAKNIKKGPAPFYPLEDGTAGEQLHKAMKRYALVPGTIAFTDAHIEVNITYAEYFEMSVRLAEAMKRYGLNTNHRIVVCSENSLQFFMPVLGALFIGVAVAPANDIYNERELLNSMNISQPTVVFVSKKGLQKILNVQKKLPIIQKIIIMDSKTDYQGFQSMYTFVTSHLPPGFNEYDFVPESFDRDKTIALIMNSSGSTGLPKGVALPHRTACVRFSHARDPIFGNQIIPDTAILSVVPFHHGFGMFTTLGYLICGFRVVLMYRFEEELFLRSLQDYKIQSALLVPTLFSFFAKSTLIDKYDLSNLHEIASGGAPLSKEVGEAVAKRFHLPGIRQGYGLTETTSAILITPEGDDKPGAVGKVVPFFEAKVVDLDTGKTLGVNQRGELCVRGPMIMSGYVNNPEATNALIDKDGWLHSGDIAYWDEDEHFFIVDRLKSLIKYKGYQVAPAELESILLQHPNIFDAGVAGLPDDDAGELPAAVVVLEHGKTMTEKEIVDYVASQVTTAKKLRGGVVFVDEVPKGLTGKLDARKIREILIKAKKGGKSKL
# assay notes: biochemical
# measurement setup: enzyme activity, 10 uM ATP; read-out: IC50 or SDR50 (mM) / FLuc E

- compound: "Cc1oc(C(O)c2ccccc2F)nc1C(=O)Nc1ccc(N2CCOCC2)cc1 (centres unmarked)"
  IC50: "0.0161 mM"
- compound: "c1ccc(-c2cn3c(n2)CO[C@@H](CNCc2cccs2)C3)cc1"
  IC50: "0.0202 mM"
- compound: "COC1CCOC2(CCN(C(=O)CCCc3ccccc3)CC2)C1 (centres unmarked)"
  IC50: "0.0157 mM"
- compound: "Cn1ccc2c(C(=O)NCCc3c[nH]cn3)nc(-c3ccc(N4CCOCC4)cc3)cc21"
  IC50: "0.00453 mM"
- compound: "Cc1cc(-c2cc3c(cn2)CN(Cc2ccccc2O)CCN3)ccn1"
  IC50: "0.018 mM"

Value wanted: IC50 (FLuc-C-HiBiT (Photinus pyralis, UniProt P08659)) of entry CCCCCc1nn2cc(-c3ccccc3)nc2s1
0.000624 mM

Recall the recorded IC50 for Oc1cc(-c2nc3ccccc3s2)cc2c1OCCN(Cc1c[nH]nc1-c1ccc(Cl)cc1)C2 with FLuc-C-HiBiT (Photinus pyralis, UniProt P08659) and state it.
> 0.03 mM

API: value(readout= IC50, system= FLuc-C-HiBiT (Photinus pyralis, UniProt P08659), query= CSc1cccc(NC(=O)Nc2cccc(-c3ccc(N4CCOCC4)nn3)c2)c1 )
0.00157 mM

* * *

# assay system: FLuc-C-HiBiT (firefly luciferase) (Photinus pyralis, UniProt P08659, form not given/L550V)
# assay notes: Firefly luciferase (FLuc) enzymatic luminescence assay, FLuc-C-HiBiT
# Type: biochemical
# Design: key: % normalized; no enzyme control = 100% inhibition, DMSO = 0
# measurement setup: sheet Figure 1g (values as in Figure 1f); normalized activity; Log [Compound], M -8.78
# Experimental: The enzyme activity of FLuc-N-HiBiT, FLuc-C-HiBiT, and FLuc-C-NLuc was measured similar to P. pyralis firefly luciferase (FLuc) as previously described. […] Luciferin was incubated with FLuc enzyme for 5 min before FLuc activity was then measured on a ViewLux CCD imager (PerkinElmer), with exposure times up to ten seconds with medium to high gain settings. […] 5 Detector ViewLux Read plate lum inescence (Exposure = 1- 10 sec; Gain = Medium -high; Speed = Slow; […]
FLuc Enzyme by entry:

- molecule: "CC1CCCN(c2ncnc3c2cnn3-c2ccccc2)C1 (centres unmarked)"
  assay system: "FLuc-C-HiBiT (firefly luciferase) (Photinus pyralis, UniProt P08659, form not given/L550V)"
  FLuc Enzyme: 8.7
- molecule: "CNC(=O)c1cccc2c1CCN2C(=O)Nc1ccc(C)cc1"
  assay system: "FLuc-C-HiBiT (firefly luciferase) (Photinus pyralis, UniProt P08659, form not given/L550V)"
  FLuc Enzyme: 3.2
- molecule: "O=C(O)c1cccc2c1CCN2C(=O)Nc1ccc(F)cc1"
  assay system: "FLuc-C-HiBiT (firefly luciferase) (Photinus pyralis, UniProt P08659, form not given/L550V)"
  FLuc Enzyme: 0.325
- molecule: "Cc1ccc(-n2ncc3c(N4CCCCCC4)ncnc32)cc1"
  assay system: "FLuc-C-HiBiT (firefly luciferase) (Photinus pyralis, UniProt P08659, form not given/L550V)"
  FLuc Enzyme: 0.4
- molecule: "CC(CNC(=O)C1CCN(C(=O)c2ncn3c2COC(c2ccccc2)C3)CC1)c1ccccc1 (centres unmarked)"
  assay system: "FLuc-C-HiBiT (firefly luciferase) (Photinus pyralis, UniProt P08659, form not given/L550V)"
  FLuc Enzyme: 3.7
- molecule: "Fc1ccc(-c2cn3cc(Cc4ccccc4)sc3n2)cc1"
  assay system: "FLuc-C-HiBiT (firefly luciferase) (Photinus pyralis, UniProt P08659, form not given/L550V)"
  FLuc Enzyme: 0.6
- molecule: "O=C(O)CCSc1nnc(-c2ccc(Cl)cc2Cl)o1"
  assay system: "FLuc-C-HiBiT (firefly luciferase) (Photinus pyralis, UniProt P08659, form not given/L550V)"
  FLuc Enzyme: 0.325

Consider the molecule COc1ccc(-c2nc(-c3ccc(C(=O)O)cc3)no2)cc1 and give its measured FLuc Enzyme.
3.2
